Numbers sourced from ChEMBL document CHEMBL1828624.

Assay: Antioxidant activity assessed as nitric oxide scavenging activity at 100 ug/ml after 150 mins by Griess method relative to control
Assay type: functional
Calls of active or inactive are those of the source. No cut-off for these calls is given here.
VALUE KIND: Activity

>  <COMPOUND>
O=S(=O)(CC1=NCCS1)C1C(c2ccc(Cl)cc2)=NN(c2ccccc2)C1c1ccc(Cl)cc1 (stereo not given)

>  <Activity>
inactive

$$$$
>  <COMPOUND>
COc1ccc(-c2noc(-c3ccc(C)cc3)c2S(=O)(=O)CC2=NCCO2)cc1

>  <Activity>
76.2%

$$$$
>  <COMPOUND>
O=S(=O)(CC1=NCCS1)c1n[nH]cc1-c1ccc(Cl)cc1

>  <Activity>
inactive

$$$$
>  <COMPOUND>
O=S(=O)(CC1=NCCO1)C1C(c2ccccc2)=NOC1c1ccccc1 (stereo not given)

>  <Activity>
62.8%

$$$$
>  <COMPOUND>
O=S(=O)(CC1=NCCS1)c1c(-c2ccccc2)noc1-c1ccccc1

>  <Activity>
inactive

$$$$

Provide the reported Activity of each entry below, same order.
1. O=S(=O)(CC1=NCCS1)C1=NNCC1c1ccccc1 (stereo not given)
2. O=S(=O)(CC1=NCCS1)C1C(c2ccc(Cl)cc2)=NOC1c1ccc(Cl)cc1 (stereo not given)

A)
1: inactive; 2: inactive

Provide the reported Activity of each entry below, same order.
1. COc1ccc(-c2nn(-c3ccccc3)c(-c3ccc(C)cc3)c2S(=O)(=O)CC2=NCCO2)cc1
2. Cc1ccc(C2CNN=C2S(=O)(=O)CC2=NCCS2)cc1 (stereo not given)

A)
1: 68.2%; 2: 52.1%

According to the records, this compound O=S(=O)(CC1=NCCO1)c1c(-c2ccc(Cl)cc2)noc1-c1ccc(Cl)cc1 displays Activity of inactive

###

Assay: Antioxidant activity assessed as nitric oxide scavenging activity at 100 ug/ml after 150 mins by Griess method relative to control
Type: functional
Calls of active or inactive are those of the source. The calls are words filed in the database; no cut-off is given here.
VALUE KIND: Activity

Worked cases, Activity given:
>  <COMPOUND>
O=S(=O)(CC1=NCCS1)c1c(-c2ccccc2)nn(-c2ccccc2)c1-c1ccccc1

>  <Activity>
inactive

$$$$
>  <COMPOUND>
Cc1ccc(C2CNN=C2S(=O)(=O)CC2=NCCO2)cc1 (stereo not given)

>  <Activity>
51.4%

$$$$
>  <COMPOUND>
O=S(=O)(CC1=NCCS1)C1C(c2ccccc2)=NN(c2ccccc2)C1c1ccccc1 (stereo not given)

>  <Activity>
inactive

$$$$
>  <COMPOUND>
O=S(=O)(CC1=NCCO1)C1C(c2ccc(Cl)cc2)=NOC1c1ccc(Cl)cc1 (stereo not given)

>  <Activity>
inactive

$$$$

Consider the record given below.
According to the records, this compound O=S(=O)(CC1=NCCO1)C1=NNCC1c1ccccc1 (stereo not given) displays Activity of inactive

###

Assay: Antioxidant activity assessed as nitric oxide scavenging activity at 100 ug/ml after 150 mins by Griess method relative to control
Format: functional
The source made the active and inactive calls. No cut-off for these calls is given here.
VALUE KIND: Activity

Worked cases, Activity given:
>  <MOLECULE>
O=S(=O)(CC1=NCCO1)C1=NNCC1c1ccc(Cl)cc1 (configuration not stated)

>  <Activity>
inactive

$$$$
>  <MOLECULE>
O=C1O[C@H]([C@@H](O)CO)C(O)=C1O [ASCORBIC ACID]

>  <Activity>
82.8%

$$$$
>  <MOLECULE>
COc1ccc(-c2noc(-c3ccc(C)cc3)c2S(=O)(=O)CC2=NCCS2)cc1

>  <Activity>
inactive

$$$$
>  <MOLECULE>
O=S(=O)(CC1=NCCO1)C1C(c2ccccc2)=NN(c2ccccc2)C1c1ccccc1 (configuration not stated)

>  <Activity>
57.9%

$$$$
>  <MOLECULE>
O=S(=O)(CC1=NCCO1)c1c(-c2ccccc2)nn(-c2ccccc2)c1-c1ccccc1

>  <Activity>
63.5%

$$$$

Provide the reported Activity of each entry below, same order.
1. COc1ccc(C2=NOC(c3ccc(C)cc3)C2S(=O)(=O)CC2=NCCO2)cc1 (configuration not stated)
2. COc1ccc(C2=NN(c3ccccc3)C(c3ccc(C)cc3)C2S(=O)(=O)CC2=NCCO2)cc1 (configuration not stated)
3. O=S(=O)(CC1=NCCS1)c1c(-c2ccc(Cl)cc2)nn(-c2ccccc2)c1-c1ccc(Cl)cc1
4. O=S(=O)(CC1=NCCO1)c1c(-c2ccccc2)noc1-c1ccccc1

A)
71.2%
70.5%
inactive
62.1%

Provide the reported Activity of each entry below, same order.
1. COc1ccc(C2=NN(c3ccccc3)C(c3ccc(C)cc3)C2S(=O)(=O)CC2=NCCS2)cc1 (configuration not stated)
2. O=S(=O)(CC1=NCCS1)C1=NNCC1c1ccc(Cl)cc1 (configuration not stated)
3. O=S(=O)(CC1=NCCO1)c1n[nH]cc1-c1ccccc1
4. O=S(=O)(CC1=NCCO1)c1c(-c2ccc(Cl)cc2)nn(-c2ccccc2)c1-c1ccc(Cl)cc1
5. Cc1ccc(-c2c[nH]nc2S(=O)(=O)CC2=NCCS2)cc1
6. COc1ccc(C2=NOC(c3ccc(C)cc3)C2S(=O)(=O)CC2=NCCS2)cc1 (configuration not stated)

A)
1: 50.7%; 2: inactive; 3: 57.5%; 4: inactive; 5: inactive; 6: 59.6%
